# tested-on: HLA-A*02:01 (Homo sapiens, UniProt P04439, D140Y/D185E/D98H/E176V/E277Q/G131W/G231S/I119V/I121R/I166T/I218V/L300P/L318F/N151K/N90K/P208A/P217A/Q86G/Q94H/R138H/R169H/T345S)
# assay-info: MHC binding assay (UV-ligand exchange, anti-β2m ELISA, peptide exchange yield)
# measurement-parameters: binding to HLA-A*02:01
experimental-endpoint: Peptide exchange (MHC class I binding score, peptide exchange yield)

{"columns": ["substance", "measurement"],
 "data": [
  ["252 (LLIGTDVSL; listed as Homo sapiens) [compound 252]", "“+++” (>50 = +++)"],
  ["431 (SLVNVVPKL; listed as Homo sapiens) [compound 431]", "“++” (>20% = ++)"],
  ["498 (KLWTGGLDNTV; listed as Homo sapiens) [compound 498]", "“+++” (>50 = +++)"],
  ["399 (YLFEPLYHV; listed as Homo sapiens) [compound 399]", "“+++” (>50 = +++)"],
  ["211 (LLWPGAALL; listed as Homo sapiens) [compound 211]", "“++” (>20% = ++)"],
  ["53 (KMIETDILQKV; listed as Homo sapiens) [compound 53]", "“++++” (>75% = ++++)"],
  ["78 (SLFSSLEPQIQPV; listed as Homo sapiens) [compound 78]", "“+++” (>50 = +++)"],
  ["180 (FQIDPHSGLVTV; listed as Homo sapiens) [compound 180]", "“++” (>20% = ++)"],
  ["83 (ILAPTVMMI; listed as Homo sapiens) [compound 83]", "“+++” (>50 = +++)"],
  ["314 (ALIAEGIALV; listed as Homo sapiens) [compound 314]", "“+++” (>50 = +++)"],
  ["243 (LLLNELPSV; listed as Homo sapiens) [compound 243]", "“+++” (>50 = +++)"],
  ["471 (YLYNNMIAKI; listed as Homo sapiens) [compound 471]", "“+++” (>50 = +++)"],
  ["308 (SQYSGQLHEV; listed as Homo sapiens) [compound 308]", "“+++” (>50 = +++)"],
  ["611 (YLLDDGTLVV; listed as Homo sapiens) [compound 611]", "“++++” (>75% = ++++)"],
  ["577 (VMFEDGVLMRL; listed as Homo sapiens) [compound 577]", "“+++” (>50 = +++)"],
  ["518 (KLNAEVACV; listed as Homo sapiens) [compound 518]", "“+++” (>50 = +++)"],
  ["617 (ALMYESEKVGV; listed as Homo sapiens) [compound 617]", "“+++” (>50 = +++)"],
  ["253 (GLDAATATV; listed as Homo sapiens) [compound 253]", "“++” (>20% = ++)"],
  ["444 (GLLRDEALAEV; listed as Homo sapiens) [compound 444]", "“+++” (>50 = +++)"],
  ["451 (LLLLDTVTMQV; listed as Homo sapiens) [compound 451]", "“++” (>20% = ++)"],
  ["4 (GIMEHITKI; listed as Homo sapiens) [compound 4]", "“++++” (>75% = ++++)"],
  ["187 (RQISIRGIVGV; listed as Homo sapiens) [compound 187]", "“+++” (>50 = +++)"],
  ["607 (RLYSGISGLEL; listed as Homo sapiens) [compound 607]", "“+++” (>50 = +++)"],
  ["35 (KINDTIYEV; listed as Homo sapiens) [compound 35]", "“+++” (>50 = +++)"],
  ["386 (ILFRYPLTI; listed as Homo sapiens) [compound 386]", "“+++” (>50 = +++)"],
  ["285 (QLLHVGVTV; listed as Homo sapiens) [compound 285]", "“+++” (>50 = +++)"],
  ["244 (SLFGGTEITI; listed as Homo sapiens) [compound 244]", "“+++” (>50 = +++)"],
  ["229 (RLPGPLGTV; listed as Homo sapiens) [compound 229]", "“++” (>20% = ++)"],
  ["281 (ILRESTEEL; listed as Homo sapiens) [compound 281]", "“+++” (>50 = +++)"],
  ["2 (SLLEADPFL; listed as Homo sapiens) [compound 2]", "“+++” (>50 = +++)"],
  ["524 (ALIENLTHQI; listed as Homo sapiens) [compound 524]", "“++” (>20% = ++)"],
  ["276 (ALFTFSPLTV; listed as Homo sapiens) [compound 276]", "“+++” (>50 = +++)"],
  ["477 (ALLPASGQIAL; listed as Homo sapiens) [compound 477]", "“+++” (>50 = +++)"],
  ["125 (VQIHQVAQV; listed as Homo sapiens) [compound 125]", "“+++” (>50 = +++)"],
  ["227 (ALMNTLLYL; listed as Homo sapiens) [compound 227]", "“++” (>20% = ++)"],
  ["202 (ALLDQQGSRWTL; listed as Homo sapiens) [compound 202]", "“+++” (>50 = +++)"],
  ["370 (SLLQDLVSV; listed as Homo sapiens) [compound 370]", "“+++” (>50 = +++)"],
  ["93 (LLQAIKLYL; listed as Homo sapiens) [compound 93]", "“++” (>20% = ++)"]
]}

// provenance: patent US10239925B2
